- assay.comment: In vivo pharmacokinetic time profile in mice (plasma and brain)
- Parameters: species or system mouse
- conditions: male, C57, plasma, 3 mg/kg; mouse, PO administration, dose 3 (mg/mg), vehicle 10% HP-betaCD
property: Cmax (ng/mL)

compound="Cc1cnc(CNC(=O)c2ccn(S(=O)(=O)c3ccc(F)cc3C)c2)cn1 [Compound 90]" unit_tag=ng/mL value=274

###

- assay.comment: Unbound fraction in plasma (mouse PK table footnote)
- Assay type: in vitro ADME
property: fraction unbound

test_smiles=Cc1ccc(S(=O)(=O)n2ccc(C(=O)NCc3ncco3)c2)cc1 value=0.08
test_smiles=Cc1cnc(CNC(=O)c2ccn(S(=O)(=O)c3ccc(F)cc3C)c2)cn1 value=0.1

These entries and their values trace back to patent US20200131156A1.
